Every entry's value here was drawn from PubChem BioAssay (NCI).

Test system: CCRF-CEM leukemia
method_description: NCI-60 one-dose screen, 48 h (100 = growth as untreated, 0 = no growth, -100 = all killed)
condition_notes: 10 µM unless noted
About 83,000 compounds went through this panel and 20% of them were active in at least one assay; those are over-represented in the sample as a whole.
Rule: growth below 50% gives Criterion met, anything at or above gives Criterion not met.

Below are worked cases with known answers.
[
  {
    "compound": "NC(=Nc1nc(-c2ccccn2)cc2ccccc12)c1ccccn1",
    "measured_on": "CCRF-CEM leukemia",
    "assigned_label": "Criterion met"
  },
  {
    "compound": "Cc1ccc(Nc2ccc(O)c3c2C(=O)c2c(O)ccc(Nc4ccc(C)cc4)c2C3=O)cc1",
    "measured_on": "CCRF-CEM leukemia",
    "assigned_label": "Criterion not met"
  },
  {
    "compound": "O=C1C=Cc2ccccc2/C1=C/c1nc(-c2ccccc2)oc1O",
    "measured_on": "CCRF-CEM leukemia",
    "assigned_label": "Criterion not met"
  }
]

Query: # TODO verify growth < 50% strictly for this compound: CCOc1cc(F)c([N+](=O)[O-])cc1[N+](=O)[O-]
Response: Criterion met

Query: # TODO verify growth < 50% strictly for this compound: COc1cc(-c2ccc(-[n+]3nc(-c4ccc([N+](=O)[O-])cc4)nn3-c3ccc([N+](=O)[O-])cc3)c(OC)c2)ccc1-[n+]1nc(-c2ccc([N+](=O)[O-])cc2)nn1-c1ccc([N+](=O)[O-])cc1
Response: Criterion met

###

System: PC-3 prostate
method_description: NCI-60 one-dose screen, 48 h (100 = growth as untreated, 0 = no growth, -100 = all killed)
condition_notes: 10 µM unless noted
This is part of a sample that, as a whole, favours compounds with a hit. Of some 83,000 tested, about 20% had one in any assay.
observable: growth (%)
Numbers only, in %.

[
  {
    "molecule": "CN(C)c1ccc(/C=C/c2cc[n+](C)c(/C=C/c3ccc(N(C)C)cc3)c2)cc1",
    "growth, %": 3.98
  },
  {
    "molecule": "CCCCCCCCCCCCCCCCSC(=NCC)NCC",
    "growth, %": -42
  },
  {
    "molecule": "Oc1c(Cl)cc(Cl)cc1C(c1cc(Cl)cc(Cl)c1O)C(Cl)(Cl)Cl",
    "growth, %": -7.63
  },
  {
    "molecule": "CN=C(N)N/N=C(\\c1ccccc1)c1ccc(Br)cc1",
    "growth, %": 12.6
  },
  {
    "molecule": "Cc1cc(C)c([I+]c2c(C)cc(C)cc2C)c(C)c1",
    "growth, %": -16.7
  },
  {
    "molecule": "CCN(CC)CCNc1ccc([N+](=O)[O-])c2sc3ccccc3c(=O)c12",
    "growth, %": 27.3
  },
  {
    "molecule": "O=C(c1ccc(O)c(Br)c1)c1ccc(O)c(Br)c1",
    "growth, %": 101
  },
  {
    "molecule": "O=C(Nc1ccc(Cl)c(Cl)c1)Nc1ccccc1O",
    "growth, %": 38.1
  },
  {
    "molecule": "NC(=S)Nc1ccc2c(c1)Cc1ccccc1-2",
    "growth, %": 71
  },
  {
    "molecule": "CCCN(CCC)C(=O)c1ccc(C)cc1",
    "growth, %": 86.5
  }
]

// next entry
Query: API: value(readout= growth, system= PC-3 prostate, query= O=C(O)c1cccc2cccc(-c3c4ccc(=O)c(O)c-4oc4c(O)c(O)ccc34)c12 )
Response: 92.3
